Tested on: MS2 coat protein
Experiment: apparent KD of MS2 coat protein; designed switch direction (-1 OFF switch, 1 ON switch): -1; higher = weaker reporter binding
Conditions: input ligand: FMN 200 uM
Class True: apparent KD of MS2 coat protein at least 40 nM. Class False: apparent KD of MS2 coat protein below 40 nM.

- monomer.sequence: "CAGUACAGAGGAUAUACAUGAGGAUCACCCAUGUGUUUCAGGUACGAAAGUACCGAAUGUAGAAGGCUGUACUG [jl-ex3-4.25 salish99 mod] (Eterna round: R97, puzzle: Exclusion 3)"
  discrete.label: "True"
- monomer.sequence: "AAGUAGGAUGUUAGGAUAUCGCCCUCGCAAUAGGGCGAGAAGGGACAUGAGGAUCACCCAUGUAGGCGAUAGAA [Laedesed] (Eterna round: R97, puzzle: Brourd's mod of Exclusion 4)"
  discrete.label: "False"
- monomer.sequence: "CGCACACAUGAGGAUCACCCAUGUGAGGAUAUCAUGCUUCGUAGUAAACUACGAAGUGUGAGAAGGCACAUGCC [Omei Ex1 D7] (Eterna round: R97, puzzle: Exclusion 1)"
  discrete.label: "False"
- monomer.sequence: "CAAACUUCGCGAGGAUAUGGGAUCAUAUAGAUGCCAGAAGGCGCGACAUGAGGAUCACCCAUGUGUUUUGCCCUGUGAUUCCAG [Eternabot solution 12] (Eterna round: R96, puzzle: Exclusion NG 1)"
  discrete.label: "False"
- monomer.sequence: "AGCUGAGCAGGAUAUACAUGAGGAUCACCCAUGUAUUCUCGAAGGCGCCGCAUAGCAUGUAGAAGGGUUUAGAU [Eternabot (L1) Solution 20] (Eterna round: R97, puzzle: Exclusion 3)"
  discrete.label: "False"
- monomer.sequence: "UUUAGUCGUGACAUGGGUGACAUGAGGAUCACCCAUGUUACAAGCUUGUUGCUCGUCUUAUAAUUAACCCAUGUCAC [LRO Sensor-off var1-16 mod of Stov1-13-A1 by Brourd] (Eterna round: R97, puzzle: Sensor, turn-off variant 1)"
  discrete.label: "False"
- monomer.sequence: "CCAUAGGGAGGAUAUCCAAUAUAUGACAUGAGGAUCACCCAUGUUUCCACUCGUACCUCCGGAGAAGGCCCAUACC [Ex5 #9] (Eterna round: R97, puzzle: Exclusion 5)"
  discrete.label: "False"
- monomer.sequence: "GGAACGCGAGGAUAUACAAGGCCGGAAACGGAAAUAGCCUCACAUGAGGAUCACCCAUGUAGAAGGCGCGGAGA [AK-MS2ROC-r4-exclusion2-26] (Eterna round: R97, puzzle: Exclusion 2)"
  discrete.label: "True"
- monomer.sequence: "UUAAAUCAUGUAGGAUAUGCGUGGCGAAGCUAUGCAGAAGGACAUGAGGAUCACCCAUGUUCUAGCGUCUGCGUACAGAUGCUA [Mat - Exclusion NG 1 - Mod of JL - D76] (Eterna round: R96, puzzle: Exclusion NG 1)"
  discrete.label: "True"
- monomer.sequence: "GCGACGCUACAUGAGGAUCACCCAUGUCCUCACAUGAGAUGGUAGGAUAUUAUAUAUACAUUGUGUGAGAAGGAUCAUCGCCCA [Eternabot solution 2] (Eterna round: R96, puzzle: Exclusion NG 3)"
  discrete.label: "True"
- monomer.sequence: "UAUUAGUAAGGAUAUGAGUCGUAGAACAAUAGUACUACGUCUCAGAAGGUACAUGAGGAUCACCCAUGUUCAUU [Mod of Fisker 2 - Jieux - Exclusion 4] (Eterna round: R97, puzzle: Exclusion 4)"
  discrete.label: "False"
- monomer.sequence: "CCAGCGUAUGUUAGGAUAUGCUGGUCCUUGGAUCAGCAGAAGGAACAUGAGGAUCACCCAUGUAGAAUCGUUGG [Mod of JL 15 - Jieux - Brourd's mod of Exclusion 4] (Eterna round: R97, puzzle: Brourd's mod of Exclusion 4)"
  discrete.label: "False"
- monomer.sequence: "UGAAUACGUGUUAGGAUAUGGUUUGGUAUUUUAGAUUAGAAGGGACAUGAGGAUCACCCAUGUAAUUGAUAGGU [-13, -10.4 kcal, 30% A] (Eterna round: R97, puzzle: Brourd's mod of Exclusion 4)"
  discrete.label: "False"
- monomer.sequence: "ACAGGUGCAGGAUAUACAUGAGGAUCACCCAUGUAGAUCAACCAGCGAUAGCUGGAAUGUAGAAGGGCACCUGU [E3/5-D1] (Eterna round: R97, puzzle: Exclusion 3)"
  discrete.label: "True"
- monomer.sequence: "UUUACAAGCUUAAGAUCCCACAUGAGGAUCACCCAUGUUCCUGGCCGUGAGGCUAGGUAAACUUAUGCUCGUCUUAU [JL TOV1 3.68] (Eterna round: R97, puzzle: Sensor, turn-off variant 1)"
  discrete.label: "True"
- monomer.sequence: "GGGUGACAUGAGGAUCACCCAUGUCAGGAUAUGAUUCUGCUUGCGAAAGCGAGUAGAAUCAGAAGGGACAUCCC (Eterna round: R97, puzzle: Exclusion 1)"
  discrete.label: "True"
- monomer.sequence: "AGUAAGCUAGGAUAUGCUUAGGGAAAGCCUUCCUUCCACAAACUUGAGGAUCACCCAAGUAGAAGGAGCUAAAU [jl-ex2.4.46 ViennaUCT mod] (Eterna round: R97, puzzle: Exclusion 2)"
  discrete.label: "False"
- monomer.sequence: "AUAGAUCGAGUUAGGAUAUUGCAGGCCGAGUACAGCAAGAAGGAACAUGAGGAUCACCCAUGUAAACGUGGCUC [Eternabot (L1) Solution 53] (Eterna round: R97, puzzle: Brourd's mod of Exclusion 4)"
  discrete.label: "False"
